ASSAY PROCEDURE: Oral bio availability in NMRI mouse at 50 mg/kg
Type: ADME, organism-based
CONDITION DESCRIPTION: in vivo
The entries below come with measured bioavailability values attached.
REPORTED METRIC: bioavailability (%)

In [3]: df
Out[3]:
                            compound_smiles  reported_metric  assay_value
0  NC(=O)c1ccc([C@H]2C[C@H]3[C@@H](N2)[C@H](c2cccc(Cl)c2F)[C@]2(C(=O)Nc4cc(Cl)ccc42)N3CC2CC2)cc1  bioavailability           58
1  CCOc1cccc(CN2[C@H]3C[C@H](c4ccc(C(=O)O)cc4)N[C@H]3[C@H](c3cccc(Cl)c3F)[C@]23C(=O)Nc2cc(Cl)ccc23)c1  bioavailability           13

====

The entries below come with measured clearance values attached.
ASSAY PROCEDURE: Clearance in NMRI mouse at 5 mg/kg, iv
Assay type: ADME, organism-based
CONDITION DESCRIPTION: in vivo
REPORTED METRIC: clearance (mL/min/kg)

>>> print(df.to_string())
                            compound_smiles  reported_metric  output_unit  assay_value
0  O=C(O)c1ccc([C@H]2C[C@H]3[C@@H](N2)[C@H](c2cccc(Cl)c2F)[C@]2(C(=O)Nc4cc(Cl)ccc42)N3CC2CC2)cc1        clearance    mL/min/kg          7.1
1  CCOc1cccc(CN2[C@H]3C[C@H](c4ccc(C(=O)O)cc4)N[C@H]3[C@H](c3cccc(Cl)c3F)[C@]23C(=O)Nc2cc(Cl)ccc23)c1        clearance    mL/min/kg         23.2
2  NC(=O)c1ccc([C@H]2C[C@H]3[C@@H](N2)[C@H](c2cccc(Cl)c2F)[C@]2(C(=O)Nc4cc(Cl)ccc42)N3CC2CC2)cc1        clearance    mL/min/kg          7.4

====

ASSAY PROCEDURE: Volume of distribution at steady state in NMRI mouse at 5 mg/kg, iv
Type: ADME, organism-based
CONDITION DESCRIPTION: in vivo, read-out: Vdss
REPORTED METRIC: Vd (L/kg)

                            compound_smiles  assay_value
0  CCOc1cccc(CN2[C@H]3C[C@H](c4ccc(C(=O)O)cc4)N[C@H]3[C@H](c3cccc(Cl)c3F)[C@]23C(=O)Nc2cc(Cl)ccc23)c1            1
1  O=C(O)c1ccc([C@H]2C[C@H]3[C@@H](N2)[C@H](c2cccc(Cl)c2F)[C@]2(C(=O)Nc4cc(Cl)ccc42)N3CC2CC2)cc1          2.1
2  NC(=O)c1ccc([C@H]2C[C@H]3[C@@H](N2)[C@H](c2cccc(Cl)c2F)[C@]2(C(=O)Nc4cc(Cl)ccc42)N3CC2CC2)cc1            2

====

TARGET UNDER TEST: Tumour suppressor p53/oncoprotein Mdm2 (Homo sapiens, UniProt Q00987)
Sequence (P04637 whole entry, the tested form may be a part): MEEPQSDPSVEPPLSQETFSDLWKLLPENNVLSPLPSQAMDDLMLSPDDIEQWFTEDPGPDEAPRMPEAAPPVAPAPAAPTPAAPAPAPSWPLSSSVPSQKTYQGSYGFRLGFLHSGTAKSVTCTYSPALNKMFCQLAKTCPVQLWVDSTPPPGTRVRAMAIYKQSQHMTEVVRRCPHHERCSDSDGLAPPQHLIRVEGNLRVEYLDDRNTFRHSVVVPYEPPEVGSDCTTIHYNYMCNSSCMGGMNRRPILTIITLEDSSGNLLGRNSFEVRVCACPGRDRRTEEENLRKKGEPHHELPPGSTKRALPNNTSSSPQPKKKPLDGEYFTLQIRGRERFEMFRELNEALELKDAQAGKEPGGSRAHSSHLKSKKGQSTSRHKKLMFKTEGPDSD
Sequence (Q00987 whole entry, the tested form may be a part): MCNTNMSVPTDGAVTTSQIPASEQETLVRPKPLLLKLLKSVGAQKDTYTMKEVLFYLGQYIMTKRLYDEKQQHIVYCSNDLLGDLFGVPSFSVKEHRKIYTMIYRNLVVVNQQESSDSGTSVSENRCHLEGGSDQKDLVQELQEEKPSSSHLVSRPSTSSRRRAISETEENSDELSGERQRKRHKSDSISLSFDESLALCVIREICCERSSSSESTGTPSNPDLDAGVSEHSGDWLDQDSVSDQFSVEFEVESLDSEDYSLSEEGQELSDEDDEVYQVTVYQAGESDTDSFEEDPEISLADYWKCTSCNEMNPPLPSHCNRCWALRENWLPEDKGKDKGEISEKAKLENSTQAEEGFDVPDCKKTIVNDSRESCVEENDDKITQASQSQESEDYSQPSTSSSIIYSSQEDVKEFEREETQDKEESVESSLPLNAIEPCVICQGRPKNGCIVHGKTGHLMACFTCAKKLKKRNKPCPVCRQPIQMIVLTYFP
ASSAY PROCEDURE: Inhibition of GST-tagged MDM2 (amino acids 17 to 111 residues)/p53 (unknown origin) interaction incubated for 15 mins by
Binarize IC50 at 6 µM; below is condition met, at or above is condition not met.

>>> df
                                    compound                         target_under_test              class
 0  CC(=O)N[C@@H]1[C@H](C)N(CC2CC2)[C@@]2(C(=O)Nc3cc(Cl)ccc32)[C@H]1c1cccc(Cl)c1F  Tumour suppressor p53/oncoprotein Mdm2 (Homo sapiens, UniProt Q00987)      condition met
 1  CSC[C@@H]1N[C@@]2(C(=O)Nc3cc(Cl)ccc32)[C@@H](c2cccc(Cl)c2)[C@@H]1[N+](=O)[O-] (racemic)  Tumour suppressor p53/oncoprotein Mdm2 (Homo sapiens, UniProt Q00987)  condition not met
 2  C[C@H]1[C@@H](N)[C@H](c2cccc(Cl)c2)[C@]2(C(=O)Nc3cc(Cl)ccc32)N1CC1CC1  Tumour suppressor p53/oncoprotein Mdm2 (Homo sapiens, UniProt Q00987)      condition met
 3  CC(C)CN1C[C@@H](N)[C@H](c2cccc(Cl)c2)[C@]12C(=O)Nc1cc(Cl)ccc12  Tumour suppressor p53/oncoprotein Mdm2 (Homo sapiens, UniProt Q00987)      condition met
 4  O=C1Nc2cc(Cl)ccc2[C@]12N[C@@H](Cn1cncn1)[C@@H]([N+](=O)[O-])[C@@H]2c1cccc(Cl)c1 (racemic)  Tumour suppressor p53/oncoprotein Mdm2 (Homo sapiens, UniProt Q00987)      condition met
 5  O=C1Nc2cc(Cl)ccc2[C@]12NC[C@@H]([N+](=O)[O-])[C@@H]2c1cccc(Cl)c1 (racemic)  Tumour suppressor p53/oncoprotein Mdm2 (Homo sapiens, UniProt Q00987)  condition not met
 6  O=C1Nc2cc(Cl)ccc2[C@]12N[C@@H](CO)[C@@H]([N+](=O)[O-])[C@@H]2c1cccc(Cl)c1 (racemic)  Tumour suppressor p53/oncoprotein Mdm2 (Homo sapiens, UniProt Q00987)  condition not met
 7  O=C1Nc2cc(Cl)ccc2[C@]12N[C@@H](Cc1c[nH]cn1)[C@@H]([N+](=O)[O-])[C@@H]2c1cccc(Cl)c1 (racemic)  Tumour suppressor p53/oncoprotein Mdm2 (Homo sapiens, UniProt Q00987)  condition not met
 8  CCOc1cccc(CN2[C@@H](C)[C@@H](N)[C@H](c3cccc(Cl)c3F)[C@]23C(=O)Nc2cc(Cl)ccc23)c1 (racemic)  Tumour suppressor p53/oncoprotein Mdm2 (Homo sapiens, UniProt Q00987)      condition met
 9  C[C@@H]1N[C@@]2(C(=O)Nc3cc(Cl)ccc32)[C@@H](c2cccc(Cl)c2)[C@@H]1[N+](=O)[O-] (racemic)  Tumour suppressor p53/oncoprotein Mdm2 (Homo sapiens, UniProt Q00987)  condition not met
10  NC(=O)c1cccc(C[C@@H]2N[C@@]3(C(=O)Nc4cc(Cl)ccc43)[C@@H](c3cccc(Cl)c3)[C@@H]2[N+](=O)[O-])c1 (racemic)  Tumour suppressor p53/oncoprotein Mdm2 (Homo sapiens, UniProt Q00987)  condition not met
11  O=C1Nc2cc(Cl)ccc2[C@]12CNC[C@@H]2c1cccc(Cl)c1 (racemic)  Tumour suppressor p53/oncoprotein Mdm2 (Homo sapiens, UniProt Q00987)  condition not met
12  O=C1Nc2cc(Cl)ccc2[C@@]12[C@@H](c1cccc(Cl)c1F)[C@@H]1NCC[C@@H]1N2CC1CC1  Tumour suppressor p53/oncoprotein Mdm2 (Homo sapiens, UniProt Q00987)      condition met
13  C[C@@H]1N[C@@]2(C(=O)Nc3cc(Cl)ccc32)[C@@H](c2cccc(Cl)c2)[C@@H]1N (racemic)  Tumour suppressor p53/oncoprotein Mdm2 (Homo sapiens, UniProt Q00987)  condition not met
14  O=C(O)C[C@@H]1N[C@@]2(C(=O)Nc3cc(Cl)ccc32)[C@@H](c2cccc(Cl)c2)[C@@H]1[N+](=O)[O-] (racemic)  Tumour suppressor p53/oncoprotein Mdm2 (Homo sapiens, UniProt Q00987)  condition not met

====

TARGET UNDER TEST: Tumour suppressor p53/oncoprotein Mdm2 (Homo sapiens, UniProt Q00987)
ASSAY PROCEDURE: Inhibition of GST-tagged MDM2 (amino acids 17 to 111 residues)/p53 (unknown origin) interaction incubated for 15 mins by
Binarize IC50 at 200 nM; below is Y, at or above is N.

In [3]: df
Out[3]:
                                    compound  class
 0  O=C(O)CN1CC[C@H]2[C@@H]1[C@H](c1cccc(Cl)c1F)[C@]1(C(=O)Nc3cc(Cl)ccc31)N2CC1CC1 (racemic)      Y
 1  CCOc1cccc(CN2[C@@H](C)[C@@H](N)[C@H](c3cccc(Cl)c3F)[C@]23C(=O)Nc2cc(Cl)ccc23)c1      Y
 2  NC(=O)CC[C@@H]1N[C@@]2(C(=O)Nc3cc(Cl)ccc32)[C@@H](c2cccc(Cl)c2)[C@@H]1[N+](=O)[O-] (racemic)      N
 3  O=C(O)CN1CC[C@H]2[C@@H]1[C@H](c1cccc(Cl)c1)[C@]1(C(=O)Nc3cc(Cl)ccc31)N2CC1CC1 (racemic)      Y
 4  CC(C)CCN1[C@@H](C)[C@@H](N)[C@H](c2cccc(Cl)c2)[C@]12C(=O)Nc1cc(Cl)ccc12 (racemic)      N
 5  O=C1Nc2cc(Cl)ccc2[C@]12N[C@@H](Cc1ccccc1)[C@@H]([N+](=O)[O-])[C@@H]2c1cccc(Cl)c1 (racemic)      N
 6  CC(C)(C)CN1C[C@@H](N)[C@H](c2cccc(Cl)c2)[C@]12C(=O)Nc1cc(Cl)ccc12      N
 7  CC(=O)N1CC[C@H]2[C@@H]1[C@H](c1cccc(Cl)c1F)[C@]1(C(=O)Nc3cc(Cl)ccc31)N2CC1CC1 (racemic)      N
 8  CC(C)CCN1[C@@H](Cn2cncn2)[C@@H](N)[C@H](c2cccc(Cl)c2)[C@]12C(=O)Nc1cc(Cl)ccc12 (racemic)      N
 9  C[C@H]1[C@@H](NCc2ccc(C(=O)O)cc2)[C@H](c2cccc(Cl)c2F)[C@]2(C(=O)Nc3cc(Cl)ccc32)N1CC1CC1      Y
10  C[C@H]1[C@@H](N)[C@H](c2cccc(Cl)c2F)[C@]2(C(=O)Nc3cc(Cl)ccc32)N1CC1CC1      Y
11  C[C@H]1[C@@H](NCC(=O)O)[C@H](c2cccc(Cl)c2F)[C@]2(C(=O)Nc3cc(Cl)ccc32)N1CC1CC1      Y
12  O=C(O)CC[C@@H]1N[C@@]2(C(=O)Nc3cc(Cl)ccc32)[C@@H](c2cccc(Cl)c2)[C@@H]1[N+](=O)[O-] (racemic)      N
13  COC(=O)c1ccc([C@H]2C[C@H]3[C@@H](N2)[C@H](c2cccc(Cl)c2F)[C@]2(C(=O)Nc4cc(Cl)ccc42)N3CC2CC2)cc1      Y
